Each record here notes measured apparent Kd (screen).
# system: T1, TNFR1 (Homo sapiens, UniProt P19438)
# T1 chain: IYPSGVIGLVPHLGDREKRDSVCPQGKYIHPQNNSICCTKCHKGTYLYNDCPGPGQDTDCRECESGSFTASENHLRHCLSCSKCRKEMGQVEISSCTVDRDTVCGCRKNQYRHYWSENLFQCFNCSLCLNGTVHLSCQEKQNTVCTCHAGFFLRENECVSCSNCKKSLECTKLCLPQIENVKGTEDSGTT
# measurement-notes: yeast display SC50
Give the value in nM but do not write nM after it.

Which measured apparent Kd (screen) value corresponds to K68C (designed binder) SMEEEVEKAAKEYEKKKKEAIEKHLEKLKAKDKEAAERFLKELEEAAKEYAKDEAKTMSEEEAKRRACKYKEKVLLSELSEEEQKEIKEAEEKLVRTILKYVEEAAK ?
3

Which measured apparent Kd (screen) value corresponds to K41N (designed binder) SMEEEVEKAAKEYEKKKKEAIEKHLEKLKAKDKEAAERFLNELEEAAKEYAKDEAKTMSEEEAKRRAKKYKEKVLLSELSEEEQKEIKEAEEKLVRTILKYVEEAAK ?
0.49

Which measured apparent Kd (screen) value corresponds to A20Y (designed binder) SMEEEVEKAAKEYEKKKKEYIEKHLEKLKAKDKEAAERFLKELEEAAKEYAKDEAKTMSEEEAKRRAKKYKEKVLLSELSEEEQKEIKEAEEKLVRTILKYVEEAAK ?
0.446

Which measured apparent Kd (screen) value corresponds to T57D (designed binder) SMEEEVEKAAKEYEKKKKEAIEKHLEKLKAKDKEAAERFLKELEEAAKEYAKDEAKDMSEEEAKRRAKKYKEKVLLSELSEEEQKEIKEAEEKLVRTILKYVEEAAK ?
13.8
